Values from paper PMC10104807

Listing: MAP4K5 PoC at 1 μM of selected compounds
target: MAP4K5 (Homo sapiens); construct: purchased Eurofins; assay: Eurofins enzymatic radiometric kinase assay; format: biochemical; conditions: ATP at Km, duplicate
Sequence (Q9Y4K4 whole entry): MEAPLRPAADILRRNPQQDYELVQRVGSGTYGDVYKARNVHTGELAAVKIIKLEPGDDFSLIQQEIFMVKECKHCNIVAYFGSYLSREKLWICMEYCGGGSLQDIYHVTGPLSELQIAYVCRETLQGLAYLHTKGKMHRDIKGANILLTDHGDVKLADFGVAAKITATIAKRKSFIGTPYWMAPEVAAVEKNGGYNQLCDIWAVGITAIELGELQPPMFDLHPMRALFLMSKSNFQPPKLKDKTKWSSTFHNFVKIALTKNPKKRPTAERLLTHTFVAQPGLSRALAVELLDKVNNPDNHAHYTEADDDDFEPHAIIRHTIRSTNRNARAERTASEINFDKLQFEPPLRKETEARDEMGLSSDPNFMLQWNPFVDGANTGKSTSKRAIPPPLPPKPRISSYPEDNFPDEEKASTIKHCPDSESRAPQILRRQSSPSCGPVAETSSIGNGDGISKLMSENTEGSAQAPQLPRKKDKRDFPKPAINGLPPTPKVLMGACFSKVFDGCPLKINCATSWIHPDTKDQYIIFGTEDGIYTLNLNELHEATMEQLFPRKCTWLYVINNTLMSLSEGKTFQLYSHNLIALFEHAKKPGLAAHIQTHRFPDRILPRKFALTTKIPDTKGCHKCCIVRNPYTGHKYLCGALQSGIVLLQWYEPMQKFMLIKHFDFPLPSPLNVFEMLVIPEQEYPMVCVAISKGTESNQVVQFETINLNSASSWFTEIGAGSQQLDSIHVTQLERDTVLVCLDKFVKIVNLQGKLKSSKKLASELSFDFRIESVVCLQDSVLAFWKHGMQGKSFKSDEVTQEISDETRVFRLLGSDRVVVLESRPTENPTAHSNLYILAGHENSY
Numbers only; they are read as PoC.

Here is how some compounds turned out for MAP4K5 PoC at 1 μM.
{"Compound": "CC(C)(O)C#Cc1ccc2[nH]c3c(c2c1)-c1nc(N)ncc1CCCC3 [Compound 2]", "Value reported": 9}
{"Compound": "CC(C)(O)C#Cc1ccc2[nH]c3c(c2c1)-c1nc(N)ncc1CCC3 [AMG28, reference compound]", "Value reported": 1}
{"Compound": "CC(C)(O)C#Cc1ccc2[nH]cc(-c3ccnc(N)n3)c2c1 [Compound 3]", "Value reported": 1}
{"Compound": "CC(C)(O)C#Cc1ccc2[nH]c3c(c2c1)-c1nc(N)ncc1CC3 [Compound 1]", "Value reported": 3}

Request: Looking for the measured MAP4K5 PoC at 1 μM of COC(C)(C)C#Cc1ccc2[nH]c3c(c2c1)-c1nc(N)ncc1CCC3 [Compound 11] , can you help?
Response: 9
